- Test system: SNB-75 CNS
- protocol-details: NCI-60 one-dose screen, 48 h
- details: 10 µM unless noted
This is part of a sample that, as a whole, favours compounds with a hit. Of some 83,000 tested, about 20% had one in any assay. Active and inactive are the calls of the source. How the source made its calls: active means growth percent below 10; inactive means the rest.
One label from this list, please: active, inactive

CC(=O)Nc1c(Cl)cc2c(c1Cl)Cc1ccccc1-2 : inactive
Oc1c(Cl)cc(Cl)c(Cl)c1Cc1c(O)c(Cl)cc(Cl)c1Cl : inactive
FC(F)(F)c1cc(-c2nnc3n2N=C(N2CCCC2)CS3)cc(C(F)(F)F)c1 : inactive

Task: Look up the recorded call for O=C(/C=C/c1c(-c2ccccc2)[nH]c2ccccc12)S(=O)(=O)c1ccccc1 in this test.
Result: inactive

Task: Try COc1c(O)cc2c(c1CC=C(C)C)OC(=O)c1c(cc(O)c(CC=C(C)C)c1O)O2 next.
Result: inactive

Task: Try COc1cc2c(cc1OC)C(CC1(O)CCCCC1)N(S(=O)(=O)c1ccc(C)cc1)CC2 (stereo not drawn) next.
Result: inactive

Task: Try CCCCCc1c(C)[nH]c(/C=C2\N=C(c3ccc[nH]3)C=C2Oc2ccc(Cl)cc2)c1C next.
Result: active

Task: Try CN1CCN(CCCOc2ccc3ncnc(Nc4ccc(OCc5cccc(F)c5)c(Cl)c4)c3c2)CC1 next.
Result: inactive

Task: Try CC(C)Sc1nc(-c2ccc(Br)cc2)c(C#N)c(N2CCCCC2)n1 next.
Result: inactive

Task: Try CSc1nc2nc3c(nc2c(=O)n1C)C(=O)c1ccccc1C3=O next.
Result: active

Task: Try COCCOCCOCCOCCOc1ccc2c(c1)C(=O)c1nc3ncccc3c(=O)n1-2 next.
Result: active

Task: Try COc1cc(C2CC(C3C(=O)N(C)C(=O)N(C)C3=O)=NN2C=O)cc(OC)c1OC (stereo not drawn) next.
Result: inactive

Task: Try CCC(C)C1NC(=O)C(CCNCS(=O)(=O)O)NC(=O)C(NC(=O)C(CCNCS(=O)(=O)O)NC(=O)C(NC(=O)C(CCNCS(=O)(=O)O)NC(=O)CCCCC(C)C)C(C)O)CCNC(=O)C(C(C)O)NC(=O)C(CCNCS(=O)(=O)O)NC(=O)C(CCNCS(=O)(=O)O)NC(=O)C(C(C)CC)NC1=O (stereo not drawn) next.
Result: inactive

Task: Try C(#Cc1ccccc1C#Cc1ccccn1)c1ccc(OCCCCCCOc2ccc(C#Cc3ccccc3C#Cc3ccccn3)cc2)cc1 next.
Result: inactive

Task: Try COc1cc(/C=C2\CN(S(=O)(=O)c3ccc(C)cc3)C/C(=C\c3cc(CN4CCOCC4)c(O)c(OC)c3)C2=O)cc(CN2CCOCC2)c1O next.
Result: inactive

Task: Try CCCCCCCCCCCCCCCCCC1=NC(C)(CO)CO1 (stereo not drawn) next.
Result: inactive

Task: Try CCCCCN(CCCCC)CCCNc1c2c(nc3ccc(Cl)cc13)CCCC2 next.
Result: inactive

Task: Try COc1cc(NC(C)CCCN)c2nc(C)ccc2c1Oc1ccc(F)cc1 (stereo not drawn) next.
Result: inactive
